# Target system: hFASN enzyme (full length) (Homo sapiens, UniProt P49327)
# Construct: 10 μL hFASN enzyme (full length, 300 ng, purified in house); made in house
# Sequence (P49327 whole entry): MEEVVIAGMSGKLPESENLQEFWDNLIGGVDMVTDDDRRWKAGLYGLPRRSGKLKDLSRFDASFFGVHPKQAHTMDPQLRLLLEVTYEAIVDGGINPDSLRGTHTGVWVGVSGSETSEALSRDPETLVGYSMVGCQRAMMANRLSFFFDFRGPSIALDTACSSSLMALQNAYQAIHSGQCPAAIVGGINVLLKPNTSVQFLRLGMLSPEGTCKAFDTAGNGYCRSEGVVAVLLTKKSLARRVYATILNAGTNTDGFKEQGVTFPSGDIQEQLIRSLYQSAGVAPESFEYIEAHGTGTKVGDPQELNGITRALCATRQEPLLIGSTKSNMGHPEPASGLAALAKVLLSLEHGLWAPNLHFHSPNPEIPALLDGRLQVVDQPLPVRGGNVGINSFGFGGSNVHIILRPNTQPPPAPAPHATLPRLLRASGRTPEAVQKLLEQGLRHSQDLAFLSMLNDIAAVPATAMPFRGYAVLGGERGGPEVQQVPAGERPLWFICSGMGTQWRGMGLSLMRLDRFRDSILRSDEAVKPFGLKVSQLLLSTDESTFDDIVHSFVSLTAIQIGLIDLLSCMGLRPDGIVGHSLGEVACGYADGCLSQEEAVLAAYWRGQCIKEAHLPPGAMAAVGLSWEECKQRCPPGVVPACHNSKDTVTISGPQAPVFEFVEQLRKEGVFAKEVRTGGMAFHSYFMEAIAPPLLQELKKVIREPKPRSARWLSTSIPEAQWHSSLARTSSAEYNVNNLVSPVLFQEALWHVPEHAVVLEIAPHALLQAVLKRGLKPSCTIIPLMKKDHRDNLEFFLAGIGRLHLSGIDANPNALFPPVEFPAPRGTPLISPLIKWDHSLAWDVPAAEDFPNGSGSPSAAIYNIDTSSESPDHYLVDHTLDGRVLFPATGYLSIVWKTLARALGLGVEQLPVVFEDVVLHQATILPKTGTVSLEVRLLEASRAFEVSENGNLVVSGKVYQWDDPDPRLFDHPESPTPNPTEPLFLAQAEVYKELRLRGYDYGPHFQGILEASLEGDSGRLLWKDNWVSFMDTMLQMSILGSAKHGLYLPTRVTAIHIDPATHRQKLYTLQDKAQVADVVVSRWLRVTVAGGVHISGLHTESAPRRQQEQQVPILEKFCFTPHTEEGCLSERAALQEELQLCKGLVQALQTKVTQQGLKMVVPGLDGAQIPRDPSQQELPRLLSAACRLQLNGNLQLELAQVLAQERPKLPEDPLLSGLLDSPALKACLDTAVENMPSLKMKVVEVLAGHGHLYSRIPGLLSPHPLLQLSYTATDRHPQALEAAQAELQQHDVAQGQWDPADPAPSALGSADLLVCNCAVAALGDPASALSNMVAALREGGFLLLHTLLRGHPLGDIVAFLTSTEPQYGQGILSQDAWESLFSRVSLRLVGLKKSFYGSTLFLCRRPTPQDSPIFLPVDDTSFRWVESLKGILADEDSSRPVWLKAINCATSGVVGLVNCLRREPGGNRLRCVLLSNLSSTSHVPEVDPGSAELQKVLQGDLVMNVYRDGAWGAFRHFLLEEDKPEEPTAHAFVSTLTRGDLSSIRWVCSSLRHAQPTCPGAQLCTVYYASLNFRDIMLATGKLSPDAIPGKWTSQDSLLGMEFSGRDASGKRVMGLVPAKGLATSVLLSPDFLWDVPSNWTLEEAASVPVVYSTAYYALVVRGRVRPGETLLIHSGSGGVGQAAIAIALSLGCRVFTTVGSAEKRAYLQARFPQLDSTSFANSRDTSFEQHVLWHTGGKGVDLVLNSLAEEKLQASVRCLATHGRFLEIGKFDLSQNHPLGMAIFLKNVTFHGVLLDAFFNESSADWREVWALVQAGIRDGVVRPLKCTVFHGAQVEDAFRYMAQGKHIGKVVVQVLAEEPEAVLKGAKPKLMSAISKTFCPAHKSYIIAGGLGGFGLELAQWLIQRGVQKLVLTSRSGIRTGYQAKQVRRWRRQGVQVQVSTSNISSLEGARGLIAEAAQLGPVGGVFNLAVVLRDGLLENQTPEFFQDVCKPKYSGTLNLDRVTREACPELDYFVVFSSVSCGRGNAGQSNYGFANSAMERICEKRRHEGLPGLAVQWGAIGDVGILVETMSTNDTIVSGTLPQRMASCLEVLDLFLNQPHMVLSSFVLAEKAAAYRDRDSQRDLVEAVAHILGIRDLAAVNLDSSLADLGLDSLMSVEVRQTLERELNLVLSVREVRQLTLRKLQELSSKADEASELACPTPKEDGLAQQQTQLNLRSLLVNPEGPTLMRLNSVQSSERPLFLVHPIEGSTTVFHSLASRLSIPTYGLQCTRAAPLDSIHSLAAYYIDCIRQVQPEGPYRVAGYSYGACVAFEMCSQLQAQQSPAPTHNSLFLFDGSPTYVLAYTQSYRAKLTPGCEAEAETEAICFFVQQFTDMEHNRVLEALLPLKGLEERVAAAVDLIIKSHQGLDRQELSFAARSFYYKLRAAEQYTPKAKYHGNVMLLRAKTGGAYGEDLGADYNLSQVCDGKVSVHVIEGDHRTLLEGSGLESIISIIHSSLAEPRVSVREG
# Protocol description: Fatty Acid Synthase (FASN) inhibition scintillation proximity assay
# Type: biochemical
# Reported conditions: read-out: Human FASN pIC50 (converted)
# Experimental: In this assay, inhibition of FASN activity is measured using ^3H-acetyl-CoA and malonyl-CoA as substrates. ^3H-Acetyl CoA is converted to ^3H-palmitate through a series of reactions by the FASN protein, which contains 7 functional domains and carries out 7 enzymatic reactions to ultimately produce ^3H-palmitate. The assay principle is based upon the fact that ^3H-acetyl-CoA is hydrophilic and the end product, ^3H-palmitate is hydrophobic. […]
Measurement label: IC50 (nM)

Record excerpt, results attached:
Substance smiles	Measurement label	Experimental value
O=C(C1CC1)N1CC(CN2C(=O)C3(CC3)N=C2c2ccc(-c3ccc(-c4cccnc4)cc3)cc2)C1	IC50	93.3
COCCN1CCC2(CC1)N=C(c1ccc(-c3ccc4c(cnn4C)c3)cc1)N(C[C@@H]1CCN(C(=O)C3CC3)C1)C2=O	IC50	309
O=C(C1CC1)N1CC[C@@H](CN2C(=O)C3(CC3)N=C2c2ccc(-c3c[nH]c4ccccc34)cc2F)C1	IC50	55
Cc1cc(-c2ccc3occc3c2)ccc1C1=NC2(CC2)C(=O)N1CC1CN(C(=O)C2CC2)C1	IC50	43.7

1: O=C(C1CC1)N1CC[C@@H](CN2C(=O)C3(CCCC3)N=C2c2ccc(-c3ccc4[nH]ccc4c3)cc2)C1
2: COC(=O)N1CC2(C1)N=C(c1ccc(-c3ccc4c(cnn4C)c3)cc1)N(C[C@@H]1CCN(C(=O)[C@H]3CCCO3)C1)C2=O
Request: Between the entries labelled 1 and 2 , which has a larger IC50 value on record? Identify your pick by its label.
Result: 2

====

# Target system: hFASN enzyme (full length) (Homo sapiens)
# Construct: 10 μL hFASN enzyme (full length, 300 ng, purified in house); made in house
# Protocol description: Fatty Acid Synthase (FASN) inhibition scintillation proximity assay
# Type: biochemical
# Reported conditions: read-out: Human FASN pIC50 (converted)
Measurement label: IC50 (nM)

Examples with answers:
Substance smiles	IC50 [nM]
O=C(C1CC1)N1CC[C@@H](CN2C(=O)C3(CC3)N=C2c2ccc(-c3ccc(-c4cccnc4)cc3)cc2)C1	123
COc1ccc2ccc(-c3ccc(C4=NC5(CC5)C(=O)N4CC4CN(C(=O)C5CC5)C4)c(F)c3)cc2c1	229
O=C(C1CC1)N1CC[C@@H](CN2C(=O)C3(CC3)N=C2c2ccc(-c3cccc(O)c3)cc2)C1	30.2
O=C(C1CC1)N1CC[C@@H](CN2C(=O)C3(CCCC3)N=C2c2ccc(-c3ccc4[nH]ccc4c3)cc2F)C1	20
O=C(Nc1cccc(-c2ccc(C3=NC4(CC4)C(=O)N3C[C@@H]3CCN(C(=O)C4CC4)C3)c(F)c2)c1)C1CC1	112

A: CN(C)CC(=O)N1CCC2(CC1)N=C(c1ccc(-c3ccc4cnccc4c3)cc1)N(CC1CN(C(=O)C3CC3)C1)C2=O
B: O=C(C1CC1)N1CC[C@@H](CN2C(=O)C3(CC3)N=C2c2ccc(-c3n[nH]c4ccccc34)cc2F)C1
C: O=C(C1CC1)N1CC[C@@H](CN2C(=O)C3(CCCC3)N=C2c2ccc(-c3nc4ccccc4o3)cc2)C1
Request: Put the compounds in ascending order of IC50. // list labels; follow requested order
Result: B, A, C

====

# Tested on: LNCaP-Vancouver prostate cells
# Protocol description: In vitro LNCaP Vancouver prostate cell proliferation assay in lipid reduced medium
# Assay type: cell-based
# Reported conditions: read-out: pIC50 LNCaP_Vancouver prostate cell (converted)
Measurement label: IC50 (µM)

Molecule	Value unit	Experimental value
Cn1ncc2cc(-c3ccc(C4=NC5(CC5)C(=O)N4C[C@@H]4CCN(C(=O)C5COC5)C4)cc3)ccc21	µM	1.05

P: CC(O)C(=O)N1CC[C@@H](CN2C(=O)C3(CCOC3)N=C2c2ccc(-c3ccc4cccnc4c3)cc2)C1 (stereo partly shown)
Q: Cc1cc(-c2ccc3cc(C#N)ccc3c2)ccc1C1=NC2(CC2)C(=O)N1CC1CN(C(=O)C2CCO2)C1 (stereo not shown)
Request: Kindly identify which of P and Q has the larger recorded IC50 value. State your choice using its label.
Result: P

a: O=C(C1CC1)N1CC[C@@H](CN2C(=O)C3(CC3)N=C2c2ccc(-c3cnc4ccccc4c3)cc2F)C1
b: Cc1ccc2ccc(-c3ccc(C4=NC5(CC5)C(=O)N4CC4CN(C(=O)C5(C)CC5)C4)c(C)c3)cc2n1
c: Cc1cc(-c2ccc(-c3cnn(C4CCC4)c3)cc2)ccc1C1=NC2(CC2)C(=O)N1CC1CN(C(=O)C2(C)CC2)C1
d: N#Cc1ccc2cc(-c3ccc(C4=NC5(CC5)C(=O)N4CC4CN(C(=O)C5CCO5)C4)c(F)c3)ccc2c1 (stereo not shown)
e: O=C(C1CC1)N1CC[C@@H](CN2C(=O)C3(CC3)N=C2c2ccc(-c3ccc4[nH]ncc4c3)cc2)C1
Request: Kindly order the items shown according to IC50, from the highest value down. Give the order by naming the labels one after another as requested.
Result: b, e, a, c, d
(b: 2.14 µM, e: 0.646 µM, a: 0.263 µM, c: 0.126 µM, d: 0.0219 µM)

A: CC1(C(=O)N2CC(CN3C(=O)C4(CC4)N=C3c3ccc(-c4ccc5cc(C#N)ccc5c4)cc3F)C2)CC1
B: O=C(C1CC1)N1CC[C@@H](CN2C(=O)C3(CC3)N=C2c2ccc(-c3ccc4occc4c3)nc2)C1
Request: Of the two listed items, which has the higher IC50? First: A Second: B // respond with label for picked entry
Result: B
(B: 6.46 µM, A: 0.0186 µM)

A: O=C(C1CC1)N1CC(CN2C(=O)C3(CCOC3)N=C2c2ccc(-c3ccc4cccnc4c3)cc2)C1 (stereo not shown)
B: COCc1nn(C)c2cc(-c3ccc(C4=NC5(CC5)C(=O)N4C[C@@H]4CCN(C(=O)C5CC5)C4)cc3)ccc12
C: O=C(C1CC1)N1CC(CN2C(=O)C3(CC3)N=C2c2ccc(-c3cccc(NS(=O)(=O)C4CC4)c3)cc2F)C1
D: O=C(C1CC1)N1CC[C@@H](CN2C(=O)C3(CCOCC3)N=C2c2ccc(-c3ccc4occc4c3)cc2)C1
E: Cc1cc(-c2ccc3c(cnn3C)c2)ccc1C1=NC2(CC2)C(=O)N1CC1CN(C(=O)C2CCO2)C1 (stereo not shown)
Request: Order these by IC50, descending, and give the full ranking. List labels; respect the requested ordering.
Result: A, C, D, B, E
(A: 5.25 µM, C: 3.24 µM, D: 1.78 µM, B: 0.55 µM, E: 0.269 µM)

P: O=C(C1CC1)N1CC[C@@H](CN2C(=O)C3(CC3)N=C2c2ccc(-c3ccc4sccc4c3)cc2)C1
Q: O=C(C1CC1)N1CC(CN2C(=O)C3(CC3)N=C2c2ccc(-c3ccc4c(cnn4CC4CC4)c3)cc2F)C1
Request: Given the listed items, does P or Q have the lesser reported IC50? # answer = label of selected item
Result: P

I: O=C(C1CC1)N1CC(CN2C(=O)C3(CC3)N=C2c2ccc(-c3ccc4cccc(F)c4c3)cc2F)C1
II: CC(C)Cn1cc(-c2ccc(-c3ccc(C4=NC5(CC5)C(=O)N4CC4CN(C(=O)C5CC5)C4)cc3)cc2)cn1
Request: # compare IC50 for I vs II ; return the one with the smaller value Mark your answer with the label of the selected entry.
Result: I
(I: 0.0813 µM, II: 0.776 µM)

a: CS(=O)(=O)N1CCC2(CC1)N=C(c1ccc(-c3ccc4[nH]ccc4c3)cc1)N(CC1CN(C(=O)C3CC3)C1)C2=O
b: Cn1cc2ccc(-c3ccc(C4=NC5(CC5)C(=O)N4CC4CN(C(=O)C5CC5)C4)c(F)c3)cc2n1
c: Cc1cc(-c2ccc3cc(C#N)ccc3c2)ccc1C1=NC2(CC2)C(=O)N1CC1CN(C(=O)C2(O)CC2)C1
d: Cc1cc(-c2nn(C)c3ccccc23)ccc1C1=NC2(CC2)C(=O)N1CC1CN(C(=O)C2(C)CC2)C1
e: O=C([C@H]1CCCO1)N1CC(CN2C(=O)C3(CCOC3)N=C2c2ccc(-c3ccc4occc4c3)cc2)C1 (stereo partly shown)
Request: Highest IC50 first, then in falling order down to the smallest. Ranked list of labels, please, in the requested order.
Result: e, a, d, b, c

a: Cc1nn(C)c2ccc(-c3ccc(C4=NC5(CC5)C(=O)N4C[C@@H]4CCN(C(=O)C5CC5)C4)cc3)cc12
b: Cn1ncc2cc(-c3ccc(C4=NC5(CCOC5)C(=O)N4C[C@@H]4CCN(C(=O)[C@H]5CCCO5)C4)cc3)ccc21 (stereo partly shown)
Request: I'd appreciate it if you could identify which of a and b has the greater IC50. Give the chosen item's label as your response.
Result: b
(b: 4.57 µM, a: 0.417 µM)
